Target: T1, human Glypican-3 expressed on 293 cells (pFLAG-CMV3 hGPC3) (human, UniProt P51654 25-554)
T1 construct: whole, on cells; FLAG-tagged through the vector; also called human GPC-3
T1 sequence (P51654 25-554 limits assumed): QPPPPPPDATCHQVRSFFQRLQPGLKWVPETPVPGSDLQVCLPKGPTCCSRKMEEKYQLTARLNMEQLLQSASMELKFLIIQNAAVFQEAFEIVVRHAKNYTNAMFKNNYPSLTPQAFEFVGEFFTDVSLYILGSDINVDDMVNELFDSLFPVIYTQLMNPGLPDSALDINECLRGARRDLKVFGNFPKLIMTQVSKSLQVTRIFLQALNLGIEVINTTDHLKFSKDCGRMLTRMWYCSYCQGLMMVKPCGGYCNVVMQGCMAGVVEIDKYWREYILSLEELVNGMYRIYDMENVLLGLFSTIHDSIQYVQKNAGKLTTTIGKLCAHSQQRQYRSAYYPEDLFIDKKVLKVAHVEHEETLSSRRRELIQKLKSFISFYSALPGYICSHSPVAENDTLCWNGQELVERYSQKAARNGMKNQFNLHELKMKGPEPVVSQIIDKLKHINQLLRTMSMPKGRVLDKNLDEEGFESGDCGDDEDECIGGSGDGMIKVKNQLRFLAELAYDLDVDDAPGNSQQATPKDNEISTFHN
Test: FACS on 293 cells transfected with pFLAG-CMV3 hGPC3
ASSAY_METRIC: binding result

binder="anti-GPC-1 antibody 1-5 (antibody, V domains shown, detection was with anti-mouse IgG and the control was mouse IgG2a; also called #2; clone 1-5) VH: AVTLDESGGGLQTPGGALSLVCKASGFKFRSYDMYWVRQAPGKGLEYVAGIINTGRETYYGAAVKGRATISRDNGRSTVRLQLNNLRAEDTGTYFCAKGAAWNYAGSIDAWGHGTEVIVST VL: ALTQPASVSANPGETVKITCSGGSGSYGWYQQKSPGSAPVTVIYGDNKRPTDISSRFSGSTSGSTNTLTITGVQAEDEAVYFCGSRDNTYAGIFGAGTTLTV" assay_metric="binding result" observed_value="no binding"
binder="anti-GPC-1 antibody 1-28 (antibody, V domains shown, detection was with anti-mouse IgG and the control was mouse IgG2a; also called #7; clone 1-28) VH: AVTLDESGGGLQTPGRALSLVCKASGFTFSSYTMFWVRQAPGKGLEFVAGIDNTGIYTPYGSAVKGRATISRDNGQSTVRLQLNNLRAEDTGTYYCAKYADACTGPWCGSSAYTASTIDAWGHGTEVIVST VL: ALTQPASVSANLGGTVEITCSGGGNDYGWYQQKSPGSAPVTVIYDSINRPSNIPSRFSGSTSGSTATLTITGVQADDEAVYFCGSYDSSYVGIFGAGTTLTV" assay_metric="binding result" observed_value="no binding"
binder="anti-GPC-1 antibody 2-70 (antibody, V domains shown, detection was with anti-mouse IgG and the control was mouse IgG2a; also called #19; clone 2-70) VH: AVTLDESGGGLQTPGGALSLVCKASGLSTFSDRGMHWVRQAPGKGLEFVAAISSSGRFTLYGAAVKGRATISRDNGQSTVRLQLNDLRAEDTAIYYCARGTTTGWWADAGEIDAWGHGTEVIVST VL: ALTQPAFMSANPGETVKITCSGGSYSAYGWFQQKSPGSAPVTLIYNDNIRPSDISSRFSGSKSGSTATLTITGVQADDEAVYFCGNEDRNNTATFGAGTTLTV" assay_metric="binding result" observed_value="no binding"
